- System: A549
- EXPERIMENT: Cytotoxicity against human A549 cells at 10 uM after 48 hrs by sulforhodamine B assay relative to control
- Format: functional
Given measured Activity, output Met if it is greater than or equal to 40% and Not met if not.

Does the reported Activity for CCCCNCC(=O)Nc1ccc2c(c1)C(=O)c1cc(NC(=O)CNCCCC)ccc1-2 fall at or above the 40% mark?
Not met

Does the reported Activity for CCCNCC(=O)Nc1ccc2c(c1)C(=O)c1cc(NC(=O)CNCCC)ccc1-2 fall at or above the 40% mark?
Met

Does the reported Activity for CCNCCC(=O)Nc1ccc2c(c1)C(=O)c1cc(NC(=O)CCNCC)ccc1-2 fall at or above the 40% mark?
Met

Does the reported Activity for CCNCC(=O)Nc1ccc2c(c1)C(=O)c1cc(NC(=O)CNCC)ccc1-2 fall at or above the 40% mark?
Met

Does the reported Activity for O=C(CCN1CCOCC1)Nc1ccc2c(c1)C(=O)c1cc(NC(=O)CCN3CCOCC3)ccc1-2 fall at or above the 40% mark?
Met

---

- System: SF-539
- EXPERIMENT: Cytotoxicity against human SF539 cells at 10 uM after 48 hrs by sulforhodamine B assay relative to control
- Type: functional
Exercise: for every item that follows, state its recorded Activity.
Respond numerically; units are % and should not be typed.

Report Activity for CCCCNCC(=O)Nc1ccc2c(c1)C(=O)c1cc(NC(=O)CNCCCC)ccc1-2 please.
-82.99

Report Activity for CCNCC(=O)Nc1ccc2c(c1)C(=O)c1cc(NC(=O)CNCC)ccc1-2 please.
102.19

Report Activity for CCCSCC(=O)Nc1ccc2c(c1)C(=O)c1cc(NC(=O)CSCCC)ccc1-2 please.
77.18

Report Activity for O=C(CN1CCCC1)Nc1ccc2c(c1)C(=O)c1cc(NC(=O)CN3CCCC3)ccc1-2 please.
99.41

Report Activity for CCSCCC(=O)Nc1ccc2c(c1)C(=O)c1cc(NC(=O)CCSCC)ccc1-2 please.
86.16

Report Activity for CCCNCC(=O)Nc1ccc2c(c1)C(=O)c1cc(NC(=O)CNCCC)ccc1-2 please.
86.19

Report Activity for O=C(CCN1CCOCC1)Nc1ccc2c(c1)C(=O)c1cc(NC(=O)CCN3CCOCC3)ccc1-2 please.
107.54

Report Activity for CN1CCN(CCC(=O)Nc2ccc3c(c2)C(=O)c2cc(NC(=O)CCN4CCN(C)CC4)ccc2-3)CC1 please.
111.08

Report Activity for CCNCCC(=O)Nc1ccc2c(c1)C(=O)c1cc(NC(=O)CCNCC)ccc1-2 please.
116.97

Report Activity for CN1CCN(CC(=O)Nc2ccc3c(c2)C(=O)c2cc(NC(=O)CN4CCN(C)CC4)ccc2-3)CC1 please.
107.96

---

- Tested on: NCI-H322M
- EXPERIMENT: Cytotoxicity against human NCI-H322M cells at 10 uM after 48 hrs by sulforhodamine B assay relative to control
- Format: functional
Given measured Activity, output 1 (yes) if it is greater than or equal to 80% and 0 (no) if not.

Does the reported Activity for CCCCNCC(=O)Nc1ccc2c(c1)C(=O)c1cc(NC(=O)CNCCCC)ccc1-2 fall at or above the 80% mark?
0 (no)

Does the reported Activity for CCCSCC(=O)Nc1ccc2c(c1)C(=O)c1cc(NC(=O)CSCCC)ccc1-2 fall at or above the 80% mark?
1 (yes)

Does the reported Activity for CCCNCC(=O)Nc1ccc2c(c1)C(=O)c1cc(NC(=O)CNCCC)ccc1-2 fall at or above the 80% mark?
0 (no)

Does the reported Activity for CCNCCC(=O)Nc1ccc2c(c1)C(=O)c1cc(NC(=O)CCNCC)ccc1-2 fall at or above the 80% mark?
1 (yes)

Does the reported Activity for O=C(CCN1CCOCC1)Nc1ccc2c(c1)C(=O)c1cc(NC(=O)CCN3CCOCC3)ccc1-2 fall at or above the 80% mark?
1 (yes)

Does the reported Activity for O=C(CN1CCCC1)Nc1ccc2c(c1)C(=O)c1cc(NC(=O)CN3CCCC3)ccc1-2 fall at or above the 80% mark?
0 (no)

Does the reported Activity for CN1CCN(CC(=O)Nc2ccc3c(c2)C(=O)c2cc(NC(=O)CN4CCN(C)CC4)ccc2-3)CC1 fall at or above the 80% mark?
1 (yes)

Does the reported Activity for CCNCC(=O)Nc1ccc2c(c1)C(=O)c1cc(NC(=O)CNCC)ccc1-2 fall at or above the 80% mark?
0 (no)

Does the reported Activity for CCSCCC(=O)Nc1ccc2c(c1)C(=O)c1cc(NC(=O)CCSCC)ccc1-2 fall at or above the 80% mark?
1 (yes)
